The following compounds are shown together with reported HepG2 cells mean TOX50 values.
system: HepG2 cells; assay: HepG2 cytotoxicity assay; type: cell-based; details: HepG2 cells; mean
Measurement Label: HepG2 cells mean TOX50 (µM)

# Compound, Measurement Label, Observed Measurement
records = [
    ("CCOc1ccc2nc3cc(NC(=O)c4ccco4)ccc3c(N)c2c1", "HepG2 cells mean TOX50", 25.15),
    ("CCc1c(CCNCCCCCCNCCc2ccc3c(c2C)OCO3)ccc2c1OCO2.Cl", "HepG2 cells mean TOX50", 3.89),
    ("CCc1ccccc1-c1csc(C(=O)NCC2CCN(Cc3ccc(C(C)(C)C)cc3)C2)c1.O=C(O)C(F)(F)F (stereo not shown)", "HepG2 cells mean TOX50", 7.67),
    ("N#Cc1ccc(-c2ccc(C(=O)NCC3CCN(CCN4CCC(c5ccc6c(c5OCC(N)=O)CCCC6)CC4)CC3)cc2)cc1", "HepG2 cells mean TOX50", 6.17),
]
